- Assay summary: chemical genetic growth profiling, strain panel (AID 1159580);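 note: tested at 20 µM; growth read once vehicle control cultures reached saturation at 30 °C; 1 = growth at the plate median or of vehicle wells; lower values mean less growth of the strain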
- Settings: S. cerevisiae deletion strains, growth OD, locus YPR119W, strain clb2, hits give low values
The whole screen tested about 5,500 compounds, of which about 2,000 (36%) were called active. Roughly 18% stayed inconclusive and do not appear here. The list shows a part of the results.
Measured property: normalized growth

>>> df
                                        smi   endpoint_result
0                         Cc1coc2ccccc2c1=O   1.03 (inactive)
1       Cn1c(=O)c2[nH]c(C3CCCC3)nc2n(C)c1=O  0.997 (inactive)
2  CC(C)=CCc1c2c(c(O)c3c(=O)c(O)c(-c4ccccc4)oc13)C=CC(C)(C)O2    0.914 (active)

* * *

- Assay summary: chemical genetic growth profiling, strain panel (AID 1159580);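 note: tested at 20 µM; growth read once vehicle control cultures reached saturation at 30 °C; 1 = growth at the plate median or of vehicle wells; lower values mean less growth of the strain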
- Settings: S. cerevisiae deletion strains, growth OD, locus YJL187C, strain SWE1 (second series), hits give low values
Screen size: about 5,500 compounds; about 2,000 (36%) were called active. Roughly 18% stayed inconclusive and do not appear here. The list shows a part of the results.
Measured property: normalized growth

Molecule	Endpoint result
CC1(C)O[C@@H]2CC3C4C[C@H](F)C5=CC(=O)C=C[C@]5(C)[C@@]4(F)[C@@H](O)C[C@]3(C)[C@]2(C(=O)CO)O1 (stereo partly drawn)	0.999
COc1ccc(-c2cc(=O)c3cc(OC)ccc3o2)cc1	0.972
Cc1cc2cc3c(C)cc(=O)oc3c(C)c2o1	0.91
COc1cccc(-c2cc(=O)c3cc(OC)ccc3o2)c1	0.954
O=c1c2ccccc2[se]n1-c1ccccc1	0.907
CCN(CC)CCNc1ccc(CO)c2sc3ccccc3c(=O)c12	0.986
CC(=O)O[C@H]1C[C@H](O[C@H]2[C@@H](O)C[C@H](O[C@H]3[C@@H](O)C[C@H](O[C@H]4CC[C@@]5(C)C(CCC6C5C[C@@H](O)[C@]5(C)[C@@H](C7=CC(=O)OC7)CC[C@]65O)C4)O[C@@H]3C)O[C@@H]2C)O[C@H](C)[C@H]1O[C@@H]1O[C@H](CO)[C@@H](O)[C@H](O)[C@H]1O (stereo partly drawn)	1.01
COc1cc2c3cc1Oc1cc(ccc1O)C[C@@H]1c4c(cc(OC)c(O)c4Oc4ccc(cc4)C[C@@H]3N(C)CC2)CC[N+]1(C)C	1.04

* * *

- Assay summary: chemical genetic growth profiling, strain panel (AID 1159580);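 note: tested at 20 µM; growth read once vehicle control cultures reached saturation at 30 °C; 1 = growth at the plate median or of vehicle wells; lower values mean less growth of the strain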
- Settings: S. cerevisiae deletion strains, growth OD, locus YNL209W, strain ssb2, hits give low values
Among all 5,500 compounds or so, about 2,000 (36%) were called active. Inconclusive results (about 18%) are left out. This is one part of the list.
Threshold check on normalized growth: strictly below 1 is true (1); on or above 1 is false (0).

Compound	Qualitative label
C[C@@H]1CC[C@@]2(OC1)OC1C(O)C3C4CC[C@H]5C[C@H](O[C@@H]6O[C@H](CO)[C@H](O[C@@H]7O[C@H](CO)[C@@H](O)[C@H](O[C@@H]8OC[C@@H](O)[C@H](O)[C@H]8O)[C@H]7O[C@@H]7O[C@H](CO)[C@H](O)[C@H](O[C@@H]8O[C@H](CO)[C@@H](O)[C@H](O)[C@H]8O)[C@H]7O)[C@H](O)[C@H]6O)[C@H](O)C[C@]5(C)C4CC[C@]3(C)C1[C@@H]2C (stereo not given in full)	false (0)
CC(C(=O)O)[C@H]1CCC2C3CC=C4C[C@@H](O)CC[C@]4(C)C3CC[C@@]21C (stereo not given in full)	false (0)
CC(=O)N(O)CCCCCNC(=O)CCC(=O)N(O)CCCCCNC(=O)CCC(=O)N(O)CCCCCN	true (1)
CC(C)(C)C(=O)C(Oc1ccc(Cl)cc1)n1cncn1 (stereo not given)	true (1)

src = PubChem BioAssay AID1159580
